Molecular target: Na^+,K^+ -ATPase (Homo sapiens, UniProt P05023)
Construct: Na^+,K^+ -ATPase receptor purified according to Jorghensen; from tissue
Experiment: displacement of the specific 3H-ouabain binding from the purified Na+,K+-ATPase receptor
From the text: […]
observable: pIC50
Scale: negative log10 of molar concentration, which is what pIC50 denotes.

Q: pIC50 lookup needed for C[C@]12CC[C@H](O)C[C@H]1CC[C@@H]1[C@@H]2CC[C@]2(C)[C@@](O)(C3=CC(=O)OC3)CC[C@]12O [Ref. comp., reference compound] , thanks.
Ans: 5.90

* * *

Target: Na^+,K^+ -ATPase (Homo sapiens, UniProt P05023)
Construct: Na^+,K^+ -ATPase receptor purified according to Jorghensen; from tissue
Test: inhibition of the activity of the purified Na+,K+-ATPase measured as % of hydrolysis of 32P-ATP
Type: biochemical
observable: IC50 (µM)
Report only the number, with the unit µM understood.

Q: IC50 lookup needed for C[C@]12CC[C@H](O)C[C@H]1CC[C@@H]1[C@@H]2CC[C@]2(C)[C@@](O)(C3=CC(=O)OC3)CC[C@]12O [Ref. comp., reference compound] , thanks.
Ans: 5.01
